Record form. Attribute: soluble fraction (log2). Fill in for each entry.
# test: soluble fraction after stress (log2 fold change); higher = more stays soluble; pooled small domains, quantitative proteomics
# condition-label: stress: pH 4
Give bare numbers.

In the examples that follow, each entry is paired with its recorded soluble fraction (log2).
HMYKSSRASKSEVNKFLKFIIQSLDKRGFLQPGHKRQSMIRNIENIFYRTNLSDQEIRILLGIFSTLNK; -0.405
HMALGRTGEVYLPIPAGRAGHGKISITLQGALREVDAVTAGEALPRGTSVRVVDVAGNGVLLVEK; 0.32
HMKVNQFEVEGNQRYSTEEIAKASGVSKGDNLFLVNKTETARKLLDELAYVRSVNIKRKLPDTLVITVAE; 0.331
HMGHKKLTIELQDEIIVLPKELEKYNLTVSDDKTSLIYTYKSRGEKTGITDLLRDIKDAGLRLKDLITEQ; -0.0229
HMDAHYMEMKGKTGTAFTMLRPAGKIDIEGQIFDAVAEAGFIEKGEAIRVVKYENAQLIVRK; -0.32

Give soluble fraction (log2) for all sequences that follow.
1. HMQPIQPNQAKYLDGLSSKYKGKGNHSQAAQLTALRDALNAGDHAKAREIYDKLDYEPQAEAAH
2. HMGGELLSLRRIGTLTGISYPTLLRYVARYGEQIPQTGTGRSRRFPPAAVPVFQELRATRGRAPRATA
3. HMGEPVNSPMPGTILRVEVTQGAAVKEGQLLVVLEAMKMENEILAPKDGTVAQVVVQKGSHVETGSPLIVL
4. HMYLPGERMRIKITALGSNPKQGVGYLPDGMMVVVDEAATLVGRFVEIEFVKFLQTNSGRMMFAKVAT
5. HMGTTMLEVPNFVGEVFKEIDPEKYPNLRLVDSDYTYSNEYEAGKVISQDPVARTQVAEGSTVKLVIS

result:
1: 0.105; 2: 0.0768; 3: -0.429; 4: -0.02; 5: -0.249

For each of the items listed, what is its soluble fraction (log2)?
1. HMTQDFEPGGQVFSRGEWLTIIRVNKSNGAVSSVTTPNYSFLGYSGTMKVTPDRITDYKAPSAEEAAVAS
2. HMSVSEAELAEKYHADDLEALKSGKLHEFQENLIDRNGKKYTVQTMKDILTLSDGTRLLLGIGLD
3. HMYIENIGDYLKSHDIKPSYQRIKVFEYLMQHKNHPTVDMIYKSLVDEIPTLSKTTVYNTLNLFIEKQI
4. HMRNMVSVLDHIEGIGPKRRQLLYEHYGELEKIKEASVEEMAGLDGMNRPAAEAVYNFFLAQRNL

result:
[-0.0277, -0.0916, 0.0963, -0.308]

Batch request: soluble fraction (log2) per item, same order as input.
1. HMSVFTPLTRSELETFLAPYELGRLLDFQGIAAGSENTNYFISLEKGEYVLTLVERGPVAEMPFFIELLD
2. HMNLDVPGIIKRAKQALNLKRDSELAEFLGVSRATVTNWAARNSIDFRLLLDKLGNTVDYNWLLLGKGNPK

result:
1. -1.49
2. -0.188

Quick one: give me soluble fraction (log2) for each item below, same order please.
1. HMRVELVVVPELRQQLLPEARELANSAGLQLRVRGQSPADETRTIVVTQSPAAGTRVAARSIVLVE
2. HMAEPYDEDKVMEHLYIKGKDVVIAHLKHLKEHNEHVWLKKGVEWMQKNQDRLGFDMMEVIYVVHNH
3. HMYSDDNKSILNLIDNLFNKENIKIDINAKKLLSNYLGVDRLVTKGEIEKAILFAGTKKHLSIEDISAFLS
4. HMNPMLEPAGEIRLSDGVLLRWQSERLPGDDTVRGPGSLYELGLYRVKVRVSAPQQGVRESSVELAGWRQV

result:
0.338
-1.18
-0.992
-0.212

For each of the sequences below, note its soluble fraction (log2).
1. HMSAPVFRITPAGVVVNGLKRSDILTLTRIDGAMNTLPHNAGEVLVSTEGLAKGVYVITAGGKSLKFLV
2. HMSLSEYLSAPVLEGQRNHALFSAVMQAREQGWDEWQIRTTIGAKAEADGLRHAEIAATIRSAMSREITP
3. HMDEFTIILEDAGSQKIAVIKEVRVLNSSLGLKEAKDLVDATPATIMEKADKATADKAKAAFEAAGAKVTI
4. HMTTLAADFNSDGRVDIGDLSILAGNWGKSRTNEVDFNKYGDADYNGRIDIIDLSILATQFGQTDNSN
5. HMFAGEWKQDASGWWYQNDDGSFTRNGWQNISGKQYYFNENGYMLHDTTTPDGKQVGSDGSLV

result:
1: 0.00157; 2: -0.0425; 3: -0.75; 4: -0.142; 5: -0.389

* * *

# test: soluble fraction after stress (log2 fold change); higher = more stays soluble; pooled small domains, quantitative proteomics
# condition-label: stress: pH 4
readout: soluble fraction (log2)
Numbers only.

Some sequences with recorded soluble fraction (log2):
HMDAVDKDGNHMTFKKWSEQLQEAFHALELYDTTRAKQILSELVKFQVDSDITKSLKAIITNIDDMMA; -1.5
HMQRNLILKLDTDQPEIYKKLESIFVEINGLLVPFFIEKIIWSKQDSLNILFKNSSEALVEQLIGKNVFLP; 0.0162
HMGTAVKAPMPGTILKVNVTAGQSVKAGDIMFILEAMKMENEIVAPSDGTVSQVVAAKGSSVATDDVLAYL; -0.0993
HMDSDELEAFRLITSVNGVGPKLGIAILSEFTAEKLTVFIASGDAKALTAASGVGIKLAQRIVLELKDKVG; -0.184
HMTFVHTQIEATKEWIISHPLDKHPAVAVVDSAGSIVIGEVDYISKSIVRLRFTAEFSGKAYL; -1.79
HMAKVSVNIILKDGVDQTTFVNDVTSNTEVDLKNQLISLPQMVVLSVEEDYINTLKSHSSISILELDE; -0.541
HMHSRLEDIPGIGPRRRAMLLRHFGGLAELKAAGVEEIARVEGINMALAQRLWRALHGVPDPT; 0.343
HMSKLSVSSLSSPEVQNQLKAAGIDVNSRQYQVVMKDMMGALDGRAGYTTVSAIKNRMRQYNADGDY; 0.19

Now for a further sequence.
// soluble fraction (log2) value for `HMQITTVSPKNYAEAELIGQRFREGNPVVMDLSKLDSDLGQRLVDFASGLVFALNGTVERIAKKVFLLSP` : -0.748

* * *

# test: soluble fraction after stress (log2 fold change); higher = more stays soluble; pooled small domains, quantitative proteomics
# condition-label: stress: pH 4
readout: soluble fraction (log2)
Numbers only.

Before answering, review these 8 worked examples.
HMIIMVNLYQIWDKEVQGLDSVGAKPEQIEARRQAIAAHFESKARQAGMSSKDIYATLDNFDTYSRQKTS; -1.3
HMEEKEIGQTLSVKIRENVLSKLDMTRDLEDEEVKHIIEHEIWLAAKKHYISLEERNSIKRGIFNSL; -0.773
HMKGIHDYITKDGLRVVKVHYSADPDKDVTTVEGKKWMAKALLGYPGGLEGAKWRREMEIDFNA; -0.258
HMQLTVAVLIKNISKGQVISQGFLGFEARPERQIRGAYTNISEVLGRKAKSNIAVGTILKARHLDT; -0.49
HMGLDNEGFERLRQKITRLLSEEALPVKELVDSFASKMRQEVLETLAFLQQEGVIEEKNGKLFLK; -0.283
HMLRQRVFRIIQNNINSKNYFVYTKQILAELAGISMRSLNRTLSELQNDRLIIVDSGTIRLFT; -0.824
HMVPQEVLPITLIIDGKLIEENLLYAKMTEQVLIQQLDINNIKSIKQILFAGLDSFGNFFYQEKQN; -1.91
HMSENEVQAKVKEIVDRYAGDKSALIAILQDVQDEYRYLPKEALVSIQQQMNIPLSRVYEVATFYDAFS; -0.862

For each listed entry, give its soluble fraction (log2).
1. HMGVDKLTPREREVLALMAQGASNREIEGKLVLTAGAVSKHVANVFMKLGFSPEDENRRVKAVLAWLRTK
2. HMEVGVSGTVFNTDSLNVRKGPGTNFDTVTSLKRGSVVEVFEQSAVDGTVWGRIANGWVNMQYVSL

result:
0.225
-0.0681

* * *

# test: soluble fraction after stress (log2 fold change); higher = more stays soluble; pooled small domains, quantitative proteomics
# condition-label: stress: pH 4
Outcome label depends on soluble fraction (log2) relative to -0.2: at/above gives satisfied, below gives not satisfied.

Worked examples follow.
HMEDPRVTEIKNLQQDLAKKFKPTQGPASASDAVERVTAITTVMTKVAALPEDLRSEAMQPGKKM; satisfied
HMIPNPMTDRELEVLGLLASGKTYKQVARALDLSQSTVRNHLHNVYHKLNVVDRAQAVIVSRENGW; not satisfied
HMTRVDALDQLAAIRFSSHIFAEDQDLRMVVVDGQRIGEGDIVRDEIRLEQITETGVIFEYQGERFPIDV; not satisfied
HMEAELNSLVKTYENMKPKAAAQVFEELDMDVLLDVVERMKEKKLAPILAQVTPTRAKEITYELTQRR; satisfied
HMLVVEPSAELKTIIDKTASFVARNGPEFEARIKNEQNNAKFSFLQPNDPFNPYYRAKIVELGGTV; satisfied
HMSFPFLMPNLEGLQLDQVRVILEENGLEIGQENYQPDSKFGPGTIINHQPSVDTVVQTGQKVNLQISGTD; not satisfied
HMGPNSVPDLRGKSLRQAMKMVNDLELKAIFEGEGIVVGQVPAPGKPVPETKILKITLSLEPY; satisfied
HMSLLTPLEEARIVIEELIIPQKLTLDLLPQNSQIRKLQHEIINHYRLKGISIGDGKNRRVRIYS; not satisfied
HMEYYWHQLKGLEVVNTRGESLGRVRRLLETGANDVLVLEGEQERLIPYVPDTIKQVDLAKGLIEVAWDRD; not satisfied
HMDSEKVLTNLKEELVLQLSNIEPYGYVPSQYWYSKVQRVQSVQELGKYVDGDLEAFVMKYAEDWESQK; not satisfied

query: Say whether `HMIINFDAIRLTTELNKYNRHKAIPNSFFDGTFTILDVRDLYDSLSPKVQKIADTLIEQYNVDVKQ` shows soluble fraction (log2) of -0.2 or more.
result: not satisfied

query: soluble fraction (log2) >= -0.2 for `HMASQEESVATYIQDYYRNPKTGESMVSDDMVEEFYKTHPEWEDQADGSKEGMEAVLDNFNEFFEINYG` ?
result: satisfied

query: Please indicate if the recorded soluble fraction (log2) for `HMDTIRINSGSTVKEVAEYLGIPVPEVIKKLMSMGELATLTKTLSDDHIEVLAEEFEKKIKIVHVGEEAD` meets or exceeds -0.2.
result: not satisfied
